FYI, the data here is from ChEMBL document CHEMBL3861958.

Reported pIC50 for target or system Acetylcholinesterase (Electrophorus electricus, UniProt O42275), by entry.
pIC50: −log10 of the molar value.
measuredParameter: pIC50

1) O=C(NCCc1c[nH]c2ccccc12)c1cc2ccccc2oc1=O :: 5.23
2) COc1ccc2cc(C(=O)NCCc3c[nH]c4ccccc34)c(=O)oc2c1 :: 5.46
3) COc1cccc2cc(C(=O)NCCc3c[nH]c4ccccc34)c(=O)oc12 :: 5.55
4) O=C(NCCc1c[nH]c2ccccc12)c1cc2ccc(OCc3ccc(Cl)cc3)cc2oc1=O :: 4.91

---

- experimentalTarget: UniProt:O42275
pKi: −log10 of the molar value.
measuredParameter: pKi

1) O=C(NCCc1c[nH]c2ccccc12)c1cc2ccc(OCc3ccc(F)cc3)cc2oc1=O :: 6.31

---

- experimentalTarget: Cholinesterase (Equus caballus)
- Sequence (P81908 whole entry): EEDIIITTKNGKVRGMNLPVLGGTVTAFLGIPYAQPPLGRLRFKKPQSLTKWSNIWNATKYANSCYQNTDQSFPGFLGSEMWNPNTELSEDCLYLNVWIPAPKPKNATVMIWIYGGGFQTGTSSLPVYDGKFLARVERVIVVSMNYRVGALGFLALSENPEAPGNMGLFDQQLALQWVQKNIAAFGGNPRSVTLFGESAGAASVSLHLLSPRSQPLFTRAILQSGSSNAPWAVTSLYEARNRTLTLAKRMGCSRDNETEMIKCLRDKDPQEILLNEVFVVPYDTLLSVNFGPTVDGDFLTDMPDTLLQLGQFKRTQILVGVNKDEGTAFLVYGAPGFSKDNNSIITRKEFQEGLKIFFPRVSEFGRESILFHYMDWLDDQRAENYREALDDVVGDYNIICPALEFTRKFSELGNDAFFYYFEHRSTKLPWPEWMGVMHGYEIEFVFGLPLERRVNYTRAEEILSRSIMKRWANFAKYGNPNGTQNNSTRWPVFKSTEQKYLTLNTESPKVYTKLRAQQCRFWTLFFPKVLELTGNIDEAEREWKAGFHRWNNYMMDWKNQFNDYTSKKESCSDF
- methodNotes: Inhibition of equine serum BuChE using butyrylthiocholine iodide as substrate measured for 2 mins by Ellman's method
pIC50: −log10 of the molar value.
measuredParameter: pIC50

1) O=C(NCCc1c[nH]c2ccccc12)c1cc2ccc(OCc3ccccc3Cl)cc2oc1=O :: < 4.00
2) CCCOc1ccc2cc(C(=O)NCCc3c[nH]c4ccccc34)c(=O)oc2c1 :: < 4.00
3) COc1ccc2cc(C(=O)NCCc3c[nH]c4ccccc34)c(=O)oc2c1 :: 4.46
4) O=C(NCCc1c[nH]c2ccccc12)c1cc2ccccc2oc1=O :: 4.30
5) O=C(NCCc1c[nH]c2ccccc12)c1cc2ccc(OCc3ccc(Cl)c(Cl)c3)cc2oc1=O :: < 4.00
6) CCOc1ccc2cc(C(=O)NCCc3c[nH]c4ccccc34)c(=O)oc2c1 :: < 4.00
7) O=C(NCCc1c[nH]c2ccccc12)c1cc2ccc(OCc3ccc(Cl)cc3)cc2oc1=O :: < 4.00
8) O=C(NCCc1c[nH]c2ccccc12)c1cc2ccc(OCc3cccc(F)c3)cc2oc1=O :: 4.56
9) O=C(NCCc1c[nH]c2ccccc12)c1cc2ccc(O)cc2oc1=O :: < 4.00
10) O=C(NCCc1c[nH]c2ccccc12)c1cc2cc(Br)ccc2oc1=O :: < 4.00

---

- experimentalTarget: UniProt P81908
- methodNotes: Inhibition of equine serum BuChE using butyrylthiocholine iodide as substrate measured for 2 mins by Ellman's method
pIC50: −log10 of the molar value.
measuredParameter: pIC50

1. O=C(NCCc1c[nH]c2ccccc12)c1cc2ccc(OCc3ccccc3)cc2oc1=O :: 4.79
2. O=C(NCCc1c[nH]c2ccccc12)c1cc2ccc(OCc3ccccc3F)cc2oc1=O :: 4.56
3. COc1cccc2cc(C(=O)NCCc3c[nH]c4ccccc34)c(=O)oc12 :: 4.70
4. O=C(NCCc1c[nH]c2ccccc12)c1cc2ccc(OCc3ccc(F)cc3)cc2oc1=O :: 4.53

---

Hi! I'm sharing some IC50 results obtained with UniProt:O42275.
measuredParameter: IC50 (µM)

1) CCOc1ccc2cc(C(=O)NCCc3c[nH]c4ccccc34)c(=O)oc2c1 :: 43.8
2) CCCOc1ccc2cc(C(=O)NCCc3c[nH]c4ccccc34)c(=O)oc2c1 :: 18.7
3) O=C(NCCc1c[nH]c2ccccc12)c1cc2ccc(OCc3ccccc3Cl)cc2oc1=O :: 22.5
4) O=C(NCCc1c[nH]c2ccccc12)c1cc2ccc(OCc3ccc(F)cc3)cc2oc1=O :: 0.16
5) O=C(NCCc1c[nH]c2ccccc12)c1cc2ccc(OCc3cccc(F)c3)cc2oc1=O :: 2.5
6) O=C(NCCc1c[nH]c2ccccc12)c1cc2ccc(OCc3ccc(Cl)c(Cl)c3)cc2oc1=O :: 31.5
7) O=C(NCCc1c[nH]c2ccccc12)c1cc2ccc(OCc3ccccc3F)cc2oc1=O :: 2.5
8) O=C(NCCc1c[nH]c2ccccc12)c1cc2ccc(OCc3ccccc3)cc2oc1=O :: 1.5
